- Tested On: 20S core particle (CP) proteasome
- Method Summary: cell-based or functional assay
Non-standard residues stand in square brackets, D forms with d. dDap = NC[C@@H](N)C(=O)O
Outcome Measure: EC50, dose-response of 20S CP stimulation (µM)

I: cyclo(D[dL]F[dF]R[dA]) (SMILES CC(C)C[C@H]1NC(=O)[C@H](CC(=O)O)NC(=O)[C@@H](C)NC(=O)[C@H](CCCNC(=N)N)NC(=O)[C@@H](Cc2ccccc2)NC(=O)[C@H](Cc2ccccc2)NC1=O) [CyPPS8]
II: cyclo(T[dL]F[dF]R[dDap]) (SMILES CC(C)C[C@H]1NC(=O)[C@H]([C@@H](C)O)NC(=O)[C@@H](CN)NC(=O)[C@H](CCCNC(=N)N)NC(=O)[C@@H](Cc2ccccc2)NC(=O)[C@H](Cc2ccccc2)NC1=O) [CyPPS23]
Data request: Could you kindly indicate whether I or II has the higher EC50, dose-response of 20S CP stimulation value? Refer to your chosen item by its label in the answer.
Data returned: I
(I: 14.2 µM, II: 4.1 µM)
